This collection of values is drawn from paper PMC3176174.

test system: KOPN8 cell line; test: cells; format: cell-based, human; details: Homo sapiens, KOPN-8, 96 h
READOUT TYPE: IC50

Use these answered entries as a reference point.
Nc1nc(Cl)nc2c1ncn2[C@@H]1O[C@H](CO)[C@@H](O)[C@@H]1F 8.7 nM
Nc1ccn([C@@H]2O[C@H](CO)[C@@H](O)C2(F)F)c(=O)n1 < 5 nM

Query: Quick one: IC50 for CO[C@H]1C[C@@H]2CC[C@@H](C)[C@@](O)(O2)C(=O)C(=O)N2CCCC[C@H]2C(=O)O[C@H]([C@H](C)C[C@@H]2CC[C@@H](O)[C@H](OC)C2)CC(=O)[C@H](C)/C=C(\C)[C@@H](O)[C@@H](OC)C(=O)[C@H](C)C[C@H](C)/C=C/C=C/C=C/1C ?
Reply: < 10 nM

###

system: B1 cell line; experiment: Cell survival assay of selected drugs; type: cell-based, human; details: Homo sapiens, 96 h, read-out: IC50 Mean ± SE
READOUT TYPE: pIC50
// pIC50 is dimensionless: -log10 of concentration (M)

Reference set, count: 6
COMPOUND	pIC50
Nc1ncn([C@H]2C[C@H](O)[C@@H](CO)O2)c(=O)n1	6.63
Nc1nc(Cl)nc2c1ncn2[C@H]1C[C@H](O)[C@@H](CO)O1	6.46
Nc1ccn([C@@H]2O[C@H](CO)[C@@H](O)[C@@H]2O)c(=O)n1	5.80
CCCCC(=O)OCC(=O)[C@]1(O)Cc2c(O)c3c(c(O)c2[C@@H](O[C@H]2C[C@H](NC(=O)C(F)(F)F)[C@H](O)[C@H](C)O2)C1)C(=O)c1c(OC)cccc1C3=O	6.72
C/C(=C\c1csc(C)n1)[C@@H]1C[C@@H]2O[C@]2(C)CCC[C@H](C)[C@H](O)[C@@H](C)C(=O)C(C)(C)[C@@H](O)CC(=O)N1 [Ixabepilone]	7.36
CCC1=C[C@@H]2CN(C1)Cc1c([nH]c3ccccc13)[C@@](C(=O)OC)(c1cc3c(cc1OC)N(C)[C@H]1[C@@](O)(C(=O)OC)[C@H](OC(C)=O)[C@]4(CC)C=CCN5CC[C@]31[C@@H]54)C2	6.57

Query: // query pIC50 value for entry CN(Cc1cnc2nc(N)nc(N)c2n1)c1ccc(C(=O)N[C@@H](CCC(=O)O)C(=O)O)cc1 [Methotrexate]
Reply: 7.21

###

system: KOPN8 cell line; experiment: cells; format: cell-based, human; details: Homo sapiens, KOPN-8, 96 h
READOUT TYPE: IC50

The cases that follow already have their IC50 on record.
MOLECULE	TARGET UNDER TEST	IC50
N#Cc1ccc(C(c2ccc(C#N)cc2)n2cncn2)cc1	KOPN8 cell line	> 10000 nM
CC(C)C[C@H](NC(=O)[C@H](Cc1ccccc1)NC(=O)c1cnccn1)B(O)O	KOPN8 cell line	< 10 nM
O=P(O)(O)C(O)(Cn1ccnc1)P(=O)(O)O	KOPN8 cell line	> 10000 nM
CO[C@H]1C[C@@H]2CC[C@@H](C)[C@@](O)(O2)C(=O)C(=O)N2CCCC[C@H]2C(=O)O[C@H]([C@H](C)C[C@@H]2CC[C@@H](OCCO)[C@H](OC)C2)CC(=O)[C@H](C)/C=C(\C)[C@@H](O)[C@@H](OC)C(=O)[C@H](C)C[C@H](C)/C=C/C=C/C=C/1C	KOPN8 cell line	< 10 nM
Cn1nnc2c(C(N)=O)ncn2c1=O [Temozolomide]	KOPN8 cell line	> 5000 nM
O=NN(CCCl)C(=O)NC1CCCCC1	KOPN8 cell line	> 5000 nM

Query: Could you share which IC50 value was measured for COc1cc([C@@H]2c3cc4c(cc3[C@@H](O[C@@H]3O[C@@H]5CO[C@@H](c6cccs6)O[C@H]5[C@H](O)[C@H]3O)[C@H]3COC(=O)[C@H]23)OCO4)cc(OC)c1O [Teniposide] ?
Reply: 0.18 nM

###

IC50 reference
system: SEM cell line; assay: Cell survival assay of selected drugs; type: cell-based, human; details: Homo sapiens, 96 h, read-out: IC50 Mean ± SE

COMPOUND	IC50
Nc1ccn([C@@H]2O[C@H](CO)[C@@H](O)[C@@H]2O)c(=O)n1	292 nM
CCCCC(=O)OCC(=O)[C@]1(O)Cc2c(O)c3c(c(O)c2[C@@H](O[C@H]2C[C@H](NC(=O)C(F)(F)F)[C@H](O)[C@H](C)O2)C1)C(=O)c1c(OC)cccc1C3=O	41.3 nM
Nc1ncn([C@H]2C[C@H](O)[C@@H](CO)O2)c(=O)n1	> 10000 nM

Lab note: next compound to report on.
Query: Entry under review: CN(Cc1cnc2nc(N)nc(N)c2n1)c1ccc(C(=O)N[C@@H](CCC(=O)O)C(=O)O)cc1 [Methotrexate] . Reported IC50?
Reply: 61.7 nM

###

IC50 values for the molecules below.
system: MLL-rearranged leukemia cell lines (SEM, B1, KOPN8, MOLT-3, TIB-202); assay: In-vitro cytotoxicity across the panel of leukemia cell lines; format: cell-based, human; conditions: Homo sapiens, for four of five cell lines

Nc1nc(Cl)nc2c1ncn2[C@@H]1O[C@H](CO)[C@@H](O)[C@@H]1F < 100 nM

Query: Which measured IC50 belongs to Nc1nc2[nH]cc(CCc3ccc(C(=O)N[C@@H](CCC(=O)O)C(=O)O)cc3)c2c(=O)[nH]1 , tested on MLL-rearranged leukemia cell lines (SEM, B1, KOPN8, MOLT-3, TIB-202)?
Reply: < 1000 nM

###

tested on: MOLT-3 cell line; assay: Cell survival assay of selected drugs; format: cell-based, human; details: Homo sapiens, MOLT-3, 96 h, read-out: IC50 Mean ± SE
READOUT TYPE: pIC50
In simple prose, pIC50 is minus the logarithm base ten of a concentration in moles per litre.

Some solved entries appear below for comparison.
QUERY SMILES	pIC50
Nc1nc(Cl)nc2c1ncn2[C@H]1C[C@H](O)[C@@H](CO)O1	6.10
CCCCC(=O)OCC(=O)[C@]1(O)Cc2c(O)c3c(c(O)c2[C@@H](O[C@H]2C[C@H](NC(=O)C(F)(F)F)[C@H](O)[C@H](C)O2)C1)C(=O)c1c(OC)cccc1C3=O	5.45

Query: Dear colleague, I am looking for the recorded pIC50 of the following molecule: Nc1ncn([C@H]2C[C@H](O)[C@@H](CO)O2)c(=O)n1
Reply: 6.50

Query: Try this molecule too: Nc1ccn([C@@H]2O[C@H](CO)[C@@H](O)[C@@H]2O)c(=O)n1
Reply: 6.53

###

test system: KOPN8 cell line; test: cells; assay type: cell-based, human; conditions: Homo sapiens, KOPN-8, 96 h
// values below are reported IC50

CN(N=O)C(=O)N[C@@H](C=O)[C@@H](O)[C@H](O)[C@H](O)CO > 5000 nM

Query: Recall the recorded IC50 for O=NN(CCCl)C(=O)NCCCl with KOPN8 cell line and state it.
Reply: > 5000 nM

Query: Also S=P(N1CC1)(N1CC1)N1CC1 ?
Reply: 1960 nM

Query: Now the compound O=C(CCBr)N1CCN(C(=O)CCBr)CC1
Reply: 389 nM

Query: Record: Cc1ccc(-c2cc(C(F)(F)F)nn2-c2ccc(S(N)(=O)=O)cc2)cc1
Reply: > 10000 nM

###

tested on: KOPN8 cell line; experiment: cells; type: cell-based, human; details: Homo sapiens, KOPN-8, 96 h
pIC50: −log10 of the molar value.
pIC50 reference

A selection of reference data follows.
COMPOUND	pIC50
Nc1cccc2c1CN(C1CCC(=O)NC1=O)C2=O (stereo not drawn) [Lenalidomide]	< 5.00
CNC(=O)c1cc(Oc2ccc(NC(=O)Nc3ccc(Cl)c(C(F)(F)F)c3)cc2)ccn1	5.41
C#Cc1cccc(Nc2ncnc3cc(OCCOC)c(OCCOC)cc23)c1	5.24
CC(=O)O[C@H]1C(=O)[C@@]2(C)[C@H]([C@H](OC(=O)c3ccccc3)[C@]3(O)C[C@H](OC(=O)[C@H](O)[C@@H](NC(=O)c4ccccc4)c4ccccc4)C(C)=C1C3(C)C)[C@]1(OC(C)=O)CO[C@@H]1C[C@@H]2O	> 8.00
C[C@@H](CN1CC(=O)NC(=O)C1)N1CC(=O)NC(=O)C1	< 5.30

// below: pIC50 requested for another compound
Query: Requested read-out pIC50, target or system KOPN8 cell line, entry CC[C@]1(O)C[C@@H]2CN(CCc3c([nH]c4ccccc34)[C@@](C(=O)OC)(c3cc4c(cc3OC)N(C)[C@H]3[C@@](O)(C(=O)OC)[C@H](OC(C)=O)[C@]5(CC)C=CCN6CC[C@]43[C@@H]65)C2)C1
Reply: > 8.00

###

Recorded pIC50 for the following compounds
tested on: TIB-202 cell line; assay: cells; type: cell-based, human; conditions: Homo sapiens, 96 h, read-out: IC50 Mean ± SE
In simple prose, pIC50 is minus the logarithm base ten of a concentration in moles per litre.

COMPOUND	TARGET UNDER TEST	pIC50
CN(Cc1cnc2nc(N)nc(N)c2n1)c1ccc(C(=O)N[C@@H](CCC(=O)O)C(=O)O)cc1 [Methotrexate]	TIB-202 cell line	6.85
Nc1ccn([C@@H]2O[C@H](CO)[C@@H](O)[C@@H]2O)c(=O)n1	TIB-202 cell line	5.46
Nc1nc(Cl)nc2c1ncn2[C@H]1C[C@H](O)[C@@H](CO)O1	TIB-202 cell line	6.58

Next, consider the following compound.
Query: What pIC50 appears in the records for this compound with TIB-202 cell line? CCCCC(=O)OCC(=O)[C@]1(O)Cc2c(O)c3c(c(O)c2[C@@H](O[C@H]2C[C@H](NC(=O)C(F)(F)F)[C@H](O)[C@H](C)O2)C1)C(=O)c1c(OC)cccc1C3=O
Reply: 6.53
